System: U87MG_IDH1R132H
Assay: Cellular 2-HG production assay, U87-MG-IDH1 R132H
Type: cell-based
Settings: inhibition of 2HG production, 72 hr incubation, LC-MS/MS
MEASUREMENT NAME: IC50 (nM)

1. CC(C)[C@H](C)n1c(=O)ccc2cnc(N[C@@H](C)c3ccc(CN4CCC(F)(F)CC4)c(F)c3)nc21 [cpd 67] ... 200
2. C[C@H](Nc1ncc2ccc(=O)n(CC(C)(C)CO)c2n1)c1ccc2ccccc2c1 [cpd 38] ... 2640
3. C[C@H](Nc1ncc2ccc(=O)n(CC(C)(C)C(F)(F)F)c2n1)c1ccc(CN2CCC(F)(F)CC2)cc1 [cpd 116] ... 612
4. C[C@@H]1CN(Cc2ccc([C@H](C)Nc3ncc4ccc(=O)n(CC(C)(C)C)c4n3)c(F)c2)C[C@H](C)O1 [cpd 151] ... 321
5. CC(Nc1ncc2ccc(=O)n(CC(C)(C)C)c2n1)c1ccc(C(=O)NC2CCC(F)(F)CC2)c(Cl)c1 (stereo not shown) [cpd 82] ... 1320
6. C=CC(=O)N1CCN(C(CC2CC2)c2ccc([C@H](C)Nc3ncc4ccc(=O)n(C(C)C)c4n3)cc2)CC1 (stereo partly shown) [cpd 220] ... 0.5
7. C[C@H](Nc1ncc2ccc(=O)n(CC(C)(C)C)c2n1)c1ccc(CN2CCCC(F)(F)C2)cc1 [cpd 117] ... 177
8. C[C@H](Nc1ncc2ccc(=O)n(Cc3c(F)cccc3F)c2n1)c1ccc(CN2CCC(F)(F)CC2)cc1 [cpd 99] ... 1380
9. C=CC(=O)N1CCC(Oc2ccc([C@H](C)Nc3ncc4ccc(=O)n([C@@H](C)C(C)C)c4n3)cc2)CC1 [cpd 159] ... 81
10. CC(C)[C@H](C)n1c(=O)ccc2cnc(N[C@@H](C)c3ccc(CN4CCOCC4)c(F)c3)nc21 [cpd 68] ... 646
11. C[C@H](Nc1ncc2ccc(=O)n(CC(C)(C)C)c2n1)c1ccc(-c2cnn(C)c2)cc1 [cpd 130] ... 4840
12. CC(C)[C@H](C)n1c(=O)ccc2cnc(N[C@@H](C)c3ccc(CN4CCCC(F)(F)C4)cc3)nc21 [cpd 65] ... 179
13. C[C@H](Nc1ncc2ccc(=O)n(CC(C)(C)C)c2n1)c1ccc(-c2ccnc(F)c2)cc1 [cpd 132] ... 3220
14. C[C@H](Nc1ncc2ccc(=O)n(CC(C)(C)C)c2n1)c1ccc(CN2CCC(F)(F)CC2)cc1 [cpd 105] ... 417
15. C[C@H](Nc1ncc2ccc(=O)n(CC(C)(C)CO)c2n1)c1ccc(-c2ccsc2)cc1 [cpd 136] ... 2910
16. C[C@H](Nc1ncc2ccc(=O)n(CC(C)(C)C)c2n1)c1ccc(-c2ccccc2C#N)cc1 [cpd 134] ... 874

---

Target: IDH1^R132H homodimer enzyme (Homo sapiens, UniProt O75874, R132H)
Sequence (O75874 whole entry R132H): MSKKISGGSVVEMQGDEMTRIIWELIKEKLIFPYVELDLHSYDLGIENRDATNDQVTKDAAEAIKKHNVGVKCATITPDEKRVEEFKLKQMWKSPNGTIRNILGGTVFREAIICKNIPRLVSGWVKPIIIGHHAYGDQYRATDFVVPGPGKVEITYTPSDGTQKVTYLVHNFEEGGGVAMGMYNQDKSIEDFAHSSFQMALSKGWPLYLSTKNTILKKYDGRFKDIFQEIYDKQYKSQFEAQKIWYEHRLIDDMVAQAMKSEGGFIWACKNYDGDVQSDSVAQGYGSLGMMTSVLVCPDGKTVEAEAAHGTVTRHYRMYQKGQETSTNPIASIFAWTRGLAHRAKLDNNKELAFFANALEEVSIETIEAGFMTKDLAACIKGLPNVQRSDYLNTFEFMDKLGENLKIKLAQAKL
Experiment: NADPH depletion assay, IDH1 R132H
Method: IDH mutated enzyme activity converting alpha-ketoglutarate to 2-hydroxyglutaric acid is measured using a NADPH depletion assay. In the assay the remaining cofactor is measured at the end of the reaction with the addition of a catalytic excess of diaphorase and resazurin, to generate a fluorescent signal in proportion to the amount of NADPH remaining. […]
This section presents compounds with their documented log10 IC50 values.
MEASUREMENT NAME: log10 IC50 (log10 of the value in nM)

1. C=CC(=O)N1CCN(Cc2ccc([C@H](C)Nc3ncc4ccc(=O)n(CC)c4n3)cc2)CC1 ... 2.59
2. CC(C)Cn1c(=O)ccc2cnc(N[C@@H](C)c3ccc(CN4CCC(F)(F)CC4)cc3)nc21 [cpd 95] ... 2.63
3. C[C@H](Nc1ncc2ccc(=O)n(CC(C)(C)C)c2n1)c1ccc(C(=O)NC2CCCC2)cc1 ... 2.65
4. C[C@H](Nc1ncc2ccc(=O)n(CC(C)(C)C(F)(F)F)c2n1)c1ccc(CN2CCC(F)(F)CC2)cc1 ... 2.25
5. C[C@H](Nc1ncc2ccc(=O)n(Cc3ccc(OC(F)(F)F)cc3)c2n1)c1ccc(Cl)cc1 ... 3.37
6. C[C@H](Nc1ncc2ccc(=O)n(Cc3c(F)cccc3F)c2n1)c1ccc(C(=O)NC2CCN(C)CC2)cc1 ... 3.38
7. CC(Nc1ncc2ccc(=O)n(CC(C)(C)C)c2n1)c1ccc(C(=O)NC2CCC(F)(F)CC2)c(F)c1 (stereo not shown) ... 2.28
8. CC(C)[C@H](C)n1c(=O)ccc2cnc(N[C@@H](C)c3ccc(N4CCNCC4)cc3)nc21 ... 3.55
9. Cc1nc(N[C@@H](C)c2ccc(Cl)cc2)nc2c1ccc(=O)n2CC(C)C ... 3.58
10. C[C@H](Nc1ncc2ccc(=O)n(CC(C)(C)C)c2n1)c1nc(-c2ccc(Cl)cc2)no1 ... 3.25
11. C[C@H](Nc1ncc2ccc(=O)n(CC(C)(C)C)c2n1)c1ccc(CN2CCN(C(=O)C3CC3)CC2)cc1 ... 2.10
12. C=CC(=O)N1CCN(c2ccc([C@H](C)Nc3ncc4ccc(=O)n([C@@H](C)C(C)C)c4n3)cc2F)CC1 ... 2.09
13. C[C@H](Nc1ncc2ccc(=O)n(CC(C)(C)C)c2n1)c1ccc(-c2ccccc2C#N)cc1 ... 2.18
14. C=CC(=O)N1CCN(Cc2ccc([C@H](C)Nc3nc(NC)c4ccc(=O)n(CC(C)(C)C)c4n3)cc2)CC1 ... 2.82
15. C[C@H](Nc1ncc2ccc(=O)n(CC(C)(C)C)c2n1)c1ccc(CN2CCC(F)(F)CC2)cc1 ... 2.02
16. C/C=C/C(=O)N1CCN(Cc2ccc([C@H](C)Nc3ncc4ccc(=O)n(CC(C)(C)C)c4n3)cc2)CC1 ... 2.37
